Tested on: HCT-116
Test: Antiproliferative activity against human HCT-116 cells assessed as cell growth inhibition
Type: functional, cell-based
reported_property: IC50

compound_string | target_desc | value
CC[C@H](C)[C@H]1NC(=O)[C@@H]([C@H](O)C(C)C)NC(=O)[C@@H](C)N(C)C(=O)[C@H](C)N(C)C(=O)[C@H](CC(C)C)NC(=O)[C@H](CC(C)C)N(C)C(=O)[C@H](C)N(C)C1=O | HCT-116 | 71 nM

----------
Assay: Inhibition of EIF1A in human Jurkat cells assessed as reduction in T-cell receptor-mediated IL-2 expression
Format: cell-based

compound_string | IC50 (nM)
C/C1=C/C=C\C(=O)O[C@H](/C=C(C)/C=C/C=C/CN(C)C)Cc2csc(n2)CCCCC(=O)O[C@H](C)C1 | 0.8

----------
Test system: HCT-116
Assay: Antiproliferative activity against human HCT-116 cells assessed as cell growth inhibition incubated for 24 by 14C-thymidine incorporation assay
Format: functional, cell-based

compound_string | IC50
COc1cc(C[C@H]2NC(=O)[C@H](C(C)C)N(C)C(=O)/C=C\C[C@@H](OC)/C(C)=C/C=C/[C@@H](C)[C@@H](c3ccccc3)OC(=O)[C@H](C(C)C)NC2=O)ccc1O | 49 nM
